- Assay Target: recombinant human mPGES-1 (Homo sapiens)
- Construct: made in house; host or cells: Rosetta E. coli (microsomal/membrane fraction)
- Sequence (O14684 whole entry): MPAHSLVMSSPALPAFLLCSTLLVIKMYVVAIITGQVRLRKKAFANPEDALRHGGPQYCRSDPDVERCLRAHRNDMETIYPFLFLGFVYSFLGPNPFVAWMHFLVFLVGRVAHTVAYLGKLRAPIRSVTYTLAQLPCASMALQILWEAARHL
- Test Name: mPGES-1 inhibition test (microsomes, PGH2 substrate, HTRF detection of PGE2)
- Format: biochemical
- Condition: inhibition of mPGES-1 at 10 μM
Property Measured: inhibition at 10 µM (%)
Answer with a number only, understood to be in %.

Smiles String: Cc1ccnc(NC(=O)c2ccc3[nH]c(Nc4c(Cl)cccc4Cl)nc3c2)c1
Assay Target: recombinant human mPGES-1 (Homo sapiens)
inhibition at 10 µM [%]: 92
//
Smiles String: Cn1c(Nc2c(Cl)cc(F)cc2Cl)nc2cc(C(=O)N[C@H]3CC[C@H](C(F)(F)F)CC3)ccc21
Assay Target: recombinant human mPGES-1 (Homo sapiens)
inhibition at 10 µM [%]: 100
//
Smiles String: O=C(Nc1ccc(Br)cc1)c1ccc2[nH]c(Nc3c(Cl)cc(Cl)cc3Cl)nc2c1
Assay Target: recombinant human mPGES-1 (Homo sapiens)
inhibition at 10 µM [%]: 99

In the following, a different compound is considered.
Return reported inhibition at 10 µM; argument: `CNC(=O)c1ccc(Cl)c(Nc2nc3cc(C(=O)Nc4ccc(Br)cc4)ccc3n2C)c1`
56
